Test: in vivo
Details: Wistar, rat, in vivo, sc, 0.1 mg/kg
MEASURED_ENDPOINT: AUC(0-t)

Look up AUC(0-t) of CCNC(=O)[C@@H]1CCCN1C(=O)[C@H](CCCNC(=N)N)NC(=O)[C@H](CC(C)C)NC(=O)[C@@H](CC(C)C)NC(=O)[C@H](Cc1ccc(O)cc1)NC(=O)[C@H](CO)NC(=O)[C@H](Cc1c[nH]c2ccccc12)NC(=O)[C@H](Cc1c[nH]cn1)NC(=O)[C@@H]1CCC(=O)N1 [leuprolide] and report it. 51.2 ng·h/mL

====

Experiment: in vivo
Details: Wistar, rat, in vivo, iv, 0.1 mg/kg
MEASURED_ENDPOINT: AUC(0-t) (ng·h/mL)
Give bare numbers, in ng·h/mL.

Using the record for CCNC(=O)[C@@H]1CCCN1C(=O)[C@H](CCCNC(=N)N)NC(=O)[C@H](CC(C)C)NC(=O)[C@@H](CC(C)C)NC(=O)[C@H](Cc1ccc(O)cc1)NC(=O)[C@H](CO)NC(=O)[C@H](Cc1c[nH]c2ccccc12)NC(=O)[C@H](Cc1c[nH]cn1)NC(=O)[C@@H]1CCC(=O)N1 [leuprolide] , state its measured AUC(0-t). 103

====

Experiment: PK of leuprolide after IV and SC administration of leuprolide solution
Details: Wistar, rat, plasma, sc, 0.1 mg/kg
MEASURED_ENDPOINT: half-life
Please append the unit to your numeric answer.

Supply recorded half-life for CCNC(=O)[C@@H]1CCCN1C(=O)[C@H](CCCNC(=N)N)NC(=O)[C@H](CC(C)C)NC(=O)[C@@H](CC(C)C)NC(=O)[C@H](Cc1ccc(O)cc1)NC(=O)[C@H](CO)NC(=O)[C@H](Cc1c[nH]c2ccccc12)NC(=O)[C@H](Cc1c[nH]cn1)NC(=O)[C@@H]1CCC(=O)N1 [leuprolide] here. 39.6 min

====

Test: in vivo
Conditions: Wistar, rat, in vivo, sc, 0.1 mg/kg
MEASURED_ENDPOINT: AUC(0-inf) (ng·h/mL)
Answers are plain numbers, in ng·h/mL.

// Input: CCNC(=O)[C@@H]1CCCN1C(=O)[C@H](CCCNC(=N)N)NC(=O)[C@H](CC(C)C)NC(=O)[C@@H](CC(C)C)NC(=O)[C@H](Cc1ccc(O)cc1)NC(=O)[C@H](CO)NC(=O)[C@H](Cc1c[nH]c2ccccc12)NC(=O)[C@H](Cc1c[nH]cn1)NC(=O)[C@@H]1CCC(=O)N1 [leuprolide] . Output its AUC(0-inf) only. 53.3

====

Test: in vivo
Details: Wistar, rat, in vivo, sc, 0.1 mg/kg
MEASURED_ENDPOINT: Cmax (ng/mL)
One number for each entry, in ng/mL.

Hello, please tell me recorded Cmax for this one: CCNC(=O)[C@@H]1CCCN1C(=O)[C@H](CCCNC(=N)N)NC(=O)[C@H](CC(C)C)NC(=O)[C@@H](CC(C)C)NC(=O)[C@H](Cc1ccc(O)cc1)NC(=O)[C@H](CO)NC(=O)[C@H](Cc1c[nH]c2ccccc12)NC(=O)[C@H](Cc1c[nH]cn1)NC(=O)[C@@H]1CCC(=O)N1 [leuprolide] 41.5

====

Assay: PK of leuprolide after IV and SC administration of leuprolide solution
Conditions: Wistar, rat, plasma, iv, 0.1 mg/kg
Procedure: The PK parameters for each experimental group were estimated by one-compartmental analysis using WinNonlin® software (version 7.0, Pharsight®, a Certara™ Company, Princeton, NJ, USA). For the vehicle-administered groups (Groups 2 and 5), the above dispersion solution was administered instead of the drug (Table 5). […]
MEASURED_ENDPOINT: half-life (min)
Answers are plain numbers, in min.

Determine from records and report half-life for CCNC(=O)[C@@H]1CCCN1C(=O)[C@H](CCCNC(=N)N)NC(=O)[C@H](CC(C)C)NC(=O)[C@@H](CC(C)C)NC(=O)[C@H](Cc1ccc(O)cc1)NC(=O)[C@H](CO)NC(=O)[C@H](Cc1c[nH]c2ccccc12)NC(=O)[C@H](Cc1c[nH]cn1)NC(=O)[C@@H]1CCC(=O)N1 [leuprolide] 31.2
